The reported numbers originate from ChEMBL document CHEMBL4118217.

PROCEDURE DETAILS: in vivo
STUDY CONDITIONS: rat, iv, 0.5 mg/kg
MEASUREMENT NAME: clearance (mL/min/kg)

* COc1ccc(C(=O)C2=C(O)C(=O)N(c3ccc(-c4cc(C)no4)cc3)C2C2CCCCC2)cc1 (stereo not given) | 6.2
* COc1ccc(C(=O)C2=C(O)C(=O)N(c3ccc(-c4nnc(C)o4)cc3)C2C2CCCCC2)cc1 (stereo not given) | 5.5
* COc1ccc(C(=O)C2=C(O)C(=O)N(c3ccc(-c4nc(C)no4)cc3)C2C2CCCCC2)cc1 (stereo not given) | 3.4
* CCOC(=O)c1ccc(N2C(=O)C(O)=C(C(=O)c3ccc(OC)cc3)C2c2ccc(F)cc2)cc1 (stereo not given) | 37
* COc1ccc(C(=O)C2=C(O)C(=O)N(c3ccc(-c4noc(C)n4)cc3)C2C2CCCCC2)cc1 (stereo not given) | 5
